Source of measurements: patent US11952344B2

- target_under_test: Human NMDA (NR1/NR2B) Receptor (Homo sapiens, UniProt Q13224)
- Construct: host or cells: HEK293
- Sequence (Q13224 27-1484, other chains not shown): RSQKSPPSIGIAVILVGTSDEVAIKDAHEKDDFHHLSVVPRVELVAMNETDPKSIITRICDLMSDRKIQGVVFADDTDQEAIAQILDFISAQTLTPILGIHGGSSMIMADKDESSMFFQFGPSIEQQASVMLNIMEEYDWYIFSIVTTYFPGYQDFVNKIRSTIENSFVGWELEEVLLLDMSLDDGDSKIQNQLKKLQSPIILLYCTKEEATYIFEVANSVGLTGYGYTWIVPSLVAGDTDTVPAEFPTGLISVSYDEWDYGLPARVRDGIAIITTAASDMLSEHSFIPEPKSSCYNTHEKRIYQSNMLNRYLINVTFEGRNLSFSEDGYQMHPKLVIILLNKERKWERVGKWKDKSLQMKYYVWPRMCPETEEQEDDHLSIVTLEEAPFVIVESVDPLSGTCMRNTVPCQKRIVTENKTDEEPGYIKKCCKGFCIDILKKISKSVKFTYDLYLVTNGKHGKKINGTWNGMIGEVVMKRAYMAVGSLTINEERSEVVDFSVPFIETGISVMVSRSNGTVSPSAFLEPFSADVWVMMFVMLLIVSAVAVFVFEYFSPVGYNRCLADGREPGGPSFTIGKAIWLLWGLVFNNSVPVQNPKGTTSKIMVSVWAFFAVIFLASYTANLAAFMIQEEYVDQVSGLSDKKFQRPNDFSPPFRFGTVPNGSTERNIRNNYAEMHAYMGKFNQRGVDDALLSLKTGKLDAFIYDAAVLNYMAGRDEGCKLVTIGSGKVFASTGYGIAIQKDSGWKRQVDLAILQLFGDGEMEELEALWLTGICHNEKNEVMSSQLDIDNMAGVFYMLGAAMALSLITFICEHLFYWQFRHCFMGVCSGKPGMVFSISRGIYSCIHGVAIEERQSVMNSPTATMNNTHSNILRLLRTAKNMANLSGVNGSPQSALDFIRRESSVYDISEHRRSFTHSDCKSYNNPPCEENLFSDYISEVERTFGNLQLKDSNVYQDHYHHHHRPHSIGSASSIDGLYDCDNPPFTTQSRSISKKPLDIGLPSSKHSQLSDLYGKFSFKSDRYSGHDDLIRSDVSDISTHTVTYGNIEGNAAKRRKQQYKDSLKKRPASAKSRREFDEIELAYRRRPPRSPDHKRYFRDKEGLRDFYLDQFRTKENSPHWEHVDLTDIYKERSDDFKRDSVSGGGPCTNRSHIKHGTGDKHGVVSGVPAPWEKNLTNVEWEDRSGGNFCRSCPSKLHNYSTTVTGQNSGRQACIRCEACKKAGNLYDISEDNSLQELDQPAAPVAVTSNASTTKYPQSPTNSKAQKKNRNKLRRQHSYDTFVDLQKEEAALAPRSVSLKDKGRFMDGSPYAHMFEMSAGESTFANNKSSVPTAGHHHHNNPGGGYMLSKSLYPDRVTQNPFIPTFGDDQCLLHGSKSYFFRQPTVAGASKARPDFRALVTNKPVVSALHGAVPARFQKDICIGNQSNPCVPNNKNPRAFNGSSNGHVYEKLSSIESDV
- method: NR2B Ca2+ influx assay
- Format: cell-based
- condition_summary: 10 μM compound; HEK293 cells expressing GRIN1 and GRIN2B; glutamic acid/glycine-induced Ca2+ influx, Fluo-4 fluorescence; read-out: inhibitory rate (10 μM compound concentration)
recorded_endpoint: inhibition at 10 µM (%)
One number for each entry, in %.

compound	units_of_measure	inhibition at 10 µM
COc1ncncc1CNC(=O)c1cc(F)c(OC)c(F)c1	%	87
CCOc1ncncc1CNC(=O)c1cc(F)c(OC(F)F)c(F)c1	%	93
Cc1ncncc1CNC(=O)c1ccc(OC(F)(F)F)c(F)c1	%	92
Cc1ccncc1CNC(=O)c1ccc(OC(F)F)nc1	%	87
O=C(NCc1cnccc1OC(F)F)c1ccc(OC(F)(F)F)c(F)c1	%	96

// input: 3 compounds below; output: inhibition at 10 µM for each
1. O=C(NCc1cncnc1OC1CC1)c1cc(F)c(OC(F)F)c(F)c1
2. O=C(NCc1cncnc1C1CC1(F)F)c1cnc(OC(F)F)c(F)c1 (stereo not shown)
3. O=C(NCc1cncnc1C1CC1)c1cnc(OC(F)F)c(F)c1

Response given:
95
84
95

// input: 8 compounds below; output: inhibition at 10 µM for each
1. CCc1c(F)cncc1CNC(=O)c1cnc(OC(F)F)c(F)c1
2. CC(F)(F)c1ncc(C(=O)NCc2cncnc2OC2CC2)cc1Cl
3. COc1ncncc1CNC(=O)c1cnc(OC(F)F)c(F)c1
4. CC(C)Oc1ncncc1CNC(=O)c1cnc(OC(F)F)c(F)c1
5. O=C(NCc1cnccc1OC1CC1)c1cnc(OC(F)F)c(F)c1
6. COc1ncncc1CNC(=O)c1cc(F)c(OC)c(Cl)c1
7. Cc1ccncc1CNC(=O)c1cc(F)c(C(F)F)c(F)c1
8. CCOc1ncncc1CNC(=O)c1cnc(OC(F)F)c(F)c1

Response given:
[94, 90, 92, 94, 96, 91, 78, 95]

// input: 4 compounds below; output: inhibition at 10 µM for each
1. COc1ccncc1CNC(=O)c1cnc(OC(F)F)c(Cl)c1
2. Cc1c(Cl)cncc1CNC(=O)c1cnc(OC(F)F)c(F)c1
3. COc1ccncc1CNC(=O)c1ccc(OC(F)(F)F)cc1
4. Cc1c(F)cncc1CNC(=O)c1cnc(C(C)(F)F)c(F)c1

Response given:
98
97
91
91

----------
- target_under_test: Human NMDA (NR1/NR2B) Receptor (Homo sapiens, UniProt Q13224)
- Construct: host or cells: HEK293
- method: NR2B Ca2+ influx assay
- Type: cell-based
- condition_summary: 10 μM compound; HEK293 cells expressing GRIN1 and GRIN2B; glutamic acid/glycine-induced Ca2+ influx, Fluo-4 fluorescence; read-out: inhibitory rate (10 μM compound concentration)
Response key: MET means inhibition at 10 µM >= 90%; NOT MET means inhibition at 10 µM < 90%.

Before answering, review these 5 worked examples.
O=C(NCc1cncnc1OC1CC1)c1ccc(OC(F)F)c(F)c1 MET
O=C(NCc1cnccc1OC(F)F)c1cnc(OC(F)F)c(Cl)c1 MET
Cc1ccncc1CNC(=O)c1csc(C(F)F)c1 NOT MET
O=C(NCc1cncc(Cl)c1)c1ccc(OC(F)(F)F)cc1 MET
COc1ncncc1CNC(=O)c1ccc(OC(F)F)c(F)c1 MET

Challenge: Determine whether this compound has inhibition at 10 µM no lower than 90%: `COc1ncncc1CNC(=O)c1cnc(C(C)(F)F)c(F)c1`
Response given: NOT MET

Challenge: Determine whether this compound has inhibition at 10 µM no lower than 90%: `COc1c(F)cc(C(=O)NCc2cncc(F)c2OC)cc1F`
Response given: MET

----------
Provide the recorded inhibition at 10 µM for the entries that follow.
- target_under_test: Human NMDA (NR1/NR2B) Receptor (Homo sapiens, UniProt Q13224)
- Construct: host or cells: HEK293
- method: NR2B Ca2+ influx assay
- Type: cell-based
- condition_summary: 10 μM compound; HEK293 cells expressing GRIN1 and GRIN2B; glutamic acid/glycine-induced Ca2+ influx, Fluo-4 fluorescence; read-out: inhibitory rate (10 μM compound concentration)
Give bare numbers, in %.

The following compounds have reported results that may help.
Cc1c(F)cncc1CNC(=O)c1cc(F)c(OC(F)F)c(F)c1 93
CC(F)(F)c1ccncc1CNC(=O)c1cnc(OC(F)F)c(F)c1 90
CCOc1ncc(C(=O)NCc2cnccc2C)cc1Cl 93
Cc1c(F)cncc1CNC(=O)c1cnc(OC(F)F)c(Cl)c1 93
COc1ncncc1CNC(=O)c1cc(F)c(OC(F)F)c(F)c1 90

// input: 3 compounds below; output: inhibition at 10 µM for each
1. CCOc1c(F)cc(C(=O)NCc2cnccc2C)cc1F
2. CCOc1c(F)cncc1CNC(=O)c1cnc(OC(F)F)c(F)c1
3. CCOc1ncc(C(=O)NCc2cncnc2OC)cc1Cl

Response given:
[87, 95, 87]

// input: 2 compounds below; output: inhibition at 10 µM for each
1. Cc1ncncc1CNC(=O)c1cnc(OC(F)F)c(F)c1
2. COc1c(F)cncc1CNC(=O)c1cnc(OC(F)F)c(F)c1

Response given:
68
95

----------
- target_under_test: Human NMDA (NR1/NR2B) Receptor (Homo sapiens, UniProt Q13224)
- Construct: host or cells: HEK293
- method: NR2B Ca2+ influx assay
- Assay type: cell-based
- condition_summary: 10 μM compound; HEK293 cells expressing GRIN1 and GRIN2B; glutamic acid/glycine-induced Ca2+ influx, Fluo-4 fluorescence; read-out: inhibitory rate (10 μM compound concentration)
Provide the recorded inhibition at 10 µM for the entries that follow.
Give bare numbers, in %.

The following compounds have reported results that may help.
compound	inhibition at 10 µM / %
O=C(NCc1cncnc1C1CC(F)(F)C1)c1cnc(OC(F)F)c(F)c1	92
Cc1ccncc1CNC(=O)c1cnc(OC(F)F)c(F)c1	96
Cc1ccncc1CNC(=O)c1ccc(C(F)F)c(Cl)c1	93
Cc1ccncc1CNC(=O)c1cnc(C2CC2(F)F)c(F)c1 (centres unmarked)	90

Challenge: Recall the reported inhibition at 10 µM of Cc1c(F)cncc1CNC(=O)c1cnc(C2CC2(F)F)c(Cl)c1 (centres unmarked) on Human NMDA (NR1/NR2B) Receptor (Homo sapiens, UniProt Q13224) and write it down.
Response given: 95

----------
- target_under_test: Human NMDA (NR1/NR2B) Receptor (Homo sapiens, UniProt Q13224)
- Construct: host or cells: HEK293
- method: NR2B Ca2+ influx assay
- Assay type: cell-based
- condition_summary: 10 μM compound; HEK293 cells expressing GRIN1 and GRIN2B; glutamic acid/glycine-induced Ca2+ influx, Fluo-4 fluorescence; read-out: inhibitory rate (10 μM compound concentration)
Response key: true (1) means inhibition at 10 µM >= 90%; false (0) means inhibition at 10 µM < 90%.

Before answering, review these 8 worked examples.
molecule	assigned_category
Cc1c(F)cncc1CNC(=O)c1cnc(C(C)(F)F)c(Cl)c1	true (1)
COc1ccncc1CNC(=O)c1cnc(OC(F)(F)F)c(F)c1	true (1)
O=C(NCc1cnccc1C(F)(F)F)c1cnc(OC(F)F)c(F)c1	true (1)
COc1ncc(C(=O)NCc2cnccc2C)cc1F	false (0)
Cc1ccncc1CNC(=O)c1cnc(C2CC2(F)F)c(Cl)c1 (stereo not shown)	true (1)
Cc1c(F)cncc1CNC(=O)c1ccc(OC(F)F)c(F)c1	true (1)
COc1ncncc1CNC(=O)c1cnc(C(C)(F)F)c(Cl)c1	false (0)
COc1cncc(CNC(=O)c2ccc(OC(F)(F)F)cc2)c1	true (1)

Challenge: Determine whether this molecule has inhibition at 10 µM no lower than 90%: `Cc1ccncc1CNC(=O)c1ccc(C(F)(F)F)c(Cl)c1`
Response given: true (1)

Challenge: Determine whether this molecule has inhibition at 10 µM no lower than 90%: `COc1ncncc1CNC(=O)c1ccc(OC(F)(F)F)cc1`
Response given: true (1)

Challenge: Determine whether this molecule has inhibition at 10 µM no lower than 90%: `Cc1ccncc1CNC(=O)c1ccc(C(F)(F)F)s1`
Response given: false (0)

Challenge: Determine whether this molecule has inhibition at 10 µM no lower than 90%: `O=C(NCc1cncnc1OC1CC1)c1cnc(OC(F)F)c(Cl)c1`
Response given: true (1)

Challenge: Determine whether this molecule has inhibition at 10 µM no lower than 90%: `O=C(NCc1cncc(Br)c1)c1ccc(OC(F)(F)F)cc1`
Response given: true (1)

Challenge: Determine whether this molecule has inhibition at 10 µM no lower than 90%: `COc1ncncc1CNC(=O)c1cnc(OC(F)(F)F)c(F)c1`
Response given: true (1)

Challenge: Determine whether this molecule has inhibition at 10 µM no lower than 90%: `O=C(NCc1cnccc1C1CC1)c1cnc(OC(F)F)c(F)c1`
Response given: true (1)

----------
- target_under_test: Human NMDA (NR1/NR2B) Receptor (Homo sapiens)
- Construct: host or cells: HEK293
- method: NR2B Ca2+ influx assay
- Type: cell-based
- condition_summary: 10 μM compound; HEK293 cells expressing GRIN1 and GRIN2B; glutamic acid/glycine-induced Ca2+ influx, Fluo-4 fluorescence; read-out: inhibitory rate (10 μM compound concentration)
recorded_endpoint: inhibition at 10 µM (%)
Answers are plain numbers, in %.

The following compounds have reported results that may help.
compound	target_under_test	units_of_measure	inhibition at 10 µM
O=C(NCc1cncnc1OC1CC(F)(F)C1)c1cnc(OC(F)F)c(F)c1 [Example 32]	Human NMDA (NR1/NR2B) Receptor (Homo sapiens)	%	96
O=C(NCc1cncnc1OC1CC1)c1cnc(C2CC2)c(F)c1 [Example 81]	Human NMDA (NR1/NR2B) Receptor (Homo sapiens)	%	90
CCc1ccncc1CNC(=O)c1cnc(OC(F)F)c(F)c1 [Example 38]	Human NMDA (NR1/NR2B) Receptor (Homo sapiens)	%	94
Cc1ccncc1CNC(=O)c1cnc(OC(F)(F)F)c(F)c1 [Example 35]	Human NMDA (NR1/NR2B) Receptor (Homo sapiens)	%	96
COc1ncncc1CNC(=O)c1cnc(C2CC2)c(Cl)c1 [Example 83]	Human NMDA (NR1/NR2B) Receptor (Homo sapiens)	%	92

// input: 4 compounds below; output: inhibition at 10 µM for each
1. COc1c(F)cc(C(=O)NCc2cncc(F)c2C)cc1F [Example 67]
2. Cc1c(F)cncc1CNC(=O)c1cnc(C2CC2)c(F)c1 [Example 80]
3. COc1ncc(C(=O)NCc2cnccc2C)cc1Cl [Example 66]
4. COc1cncc(CNC(=O)c2cnc(OC(F)F)c(F)c2)c1 [Example 42]

Response given:
[92, 94, 84, 94]

// input: 2 compounds below; output: inhibition at 10 µM for each
1. Cc1ccncc1CNC(=O)c1ccc(C(F)(F)F)c(F)c1 [Example 53]
2. Cc1ccncc1CNC(=O)c1ccc(OC(F)(F)F)cc1 [Example 4]

Response given:
1: 91; 2: 96
